Listed here are sequences together with their documented recombinant UMI read abundance (log10).
experiment: recombinant UMI read abundance after kanamycin selection (control-corrected) (log10(CPM+1)); higher = more efficient recombination; extreme values may be limits of the assay; sequences stand for … in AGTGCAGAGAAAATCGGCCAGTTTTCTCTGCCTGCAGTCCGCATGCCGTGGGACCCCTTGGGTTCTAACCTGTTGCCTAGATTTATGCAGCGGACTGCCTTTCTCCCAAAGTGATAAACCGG…AGGTTGGTTTCACT; site = the 11-nt donor
Hey, just send me the number, nothing else.

Recorded recombinant UMI read abundance (log10), per entry:
macromolecule_sequence	recorded_value
GTTGTTCCATGGACCGGTTTTCCCGGTAATCCGTATTTGGT (site GTTGATCCTAC)	0.00419
GGCCGTACATGGACCGGTTTTCCCGGTAATCCGTATTTGCT (site TGCCGTACTAG)	0.302
CGATCACCATGGACCGGTTTTCCCGGTAATCCGTATTTGCC (site CGATCACCTGG)	0
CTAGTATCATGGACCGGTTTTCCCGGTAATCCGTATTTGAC (site GTTGTATCTGT)	0.0569

Switching to the query record.
Problem: Consider the sequence shown here: TTATACTCATGGACCGGTTTTCCCGGTAATCCGTATTTGCA (site TCATACTCTTG) What is its recorded recombinant UMI read abundance (log10)?
Solution: 1.9

====

Listed here are sequences together with their documented recombinant barcode read abundance (log10).
assay: recombinant barcode read abundance after kanamycin selection (control-corrected) (log10(CPM+1)); higher = more efficient recombination; sequences stand for … in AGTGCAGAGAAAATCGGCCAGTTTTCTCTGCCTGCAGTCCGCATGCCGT…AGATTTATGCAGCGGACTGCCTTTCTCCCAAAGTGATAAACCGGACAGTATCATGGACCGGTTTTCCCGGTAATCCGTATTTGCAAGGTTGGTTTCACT; site = the 11-nt target
Hey, just send me the number, nothing else.

Recorded recombinant barcode read abundance (log10), per entry:
macromolecule_sequence	recorded_value
AGGGCACCTTGGGTTCTAACCTGTTGCAG (site AGGGCACCTCT)	1.56
AATCGAGCTTGGGTTCTAACCTGTTGCGG (site TCCGCTTCTAA)	0.0864
AACAGGGCTTGGGTTCTAACCTGTTGCCG (site AACAGGGCTCG)	1.22
GGACGCGCTTGGGTTCTAACCTGTTGCGG (site GGGCCCGCTCC)	0.075

Problem: Consider the sequence shown here: CTATTGTCTTGGGTTCTAACCTGTTGCGT (site CTATTGTCTTC) What is its recorded recombinant barcode read abundance (log10)?
Solution: 0.0685

Problem: Consider the sequence shown here: ACAAGTCCTTGGGTTCTAACCTGTTGCGG (site ATAAGTCCTTC) What is its recorded recombinant barcode read abundance (log10)?
Solution: 0.0466

Problem: Consider the sequence shown here: CTGATCACTTGGGTTCTAACCTGTTGCCT (site CTGATAACTAG) What is its recorded recombinant barcode read abundance (log10)?
Solution: 0.0217

Problem: Consider the sequence shown here: AGATCGGCTTGGGTTCTAACCTGTTGCCT (site AGGTCGGCTAG) What is its recorded recombinant barcode read abundance (log10)?
Solution: 0.0375

Problem: Consider the sequence shown here: CACTATCCTTGGGTTCTAACCTGTTGCCT (site CAATATCCTAG) What is its recorded recombinant barcode read abundance (log10)?
Solution: 0.0585

Problem: Consider the sequence shown here: GGTGCGGCTTGGGTTCTAACCTGTTGCCT (site AGTGCGGCTAG) What is its recorded recombinant barcode read abundance (log10)?
Solution: 0.492

These entries and their values trace back to the supplement of paper PMC11208160.
